Field: IC50. Provide a value for each of the molecules that follow.
# testSystem: MenA (Mycobacterium tuberculosis, UniProt P9WIP3)
# Sequence (P9WIP3 whole entry): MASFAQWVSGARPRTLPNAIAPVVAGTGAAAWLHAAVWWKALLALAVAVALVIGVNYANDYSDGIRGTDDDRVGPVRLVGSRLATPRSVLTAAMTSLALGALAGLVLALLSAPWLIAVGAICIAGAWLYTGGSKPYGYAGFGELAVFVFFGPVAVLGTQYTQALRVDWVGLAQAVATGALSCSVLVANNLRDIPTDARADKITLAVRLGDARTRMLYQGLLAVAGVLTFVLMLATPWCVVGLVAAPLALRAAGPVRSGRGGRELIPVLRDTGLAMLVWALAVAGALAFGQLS
# measurementDescription: In vitro assay against MenA (membrane fractions)
# Format: biochemical
# measurementConditions: membrane fractions from M. tuberculosis; 5 μM farnesyl diphosphate, 50 μM dihydroxynaphthoic acid, pH 8.5; read-out: IC50 (μmol) MenA
Numbers only, in µM.

[
  {
    "molecule": "C=CCN(C)CCCCCCCCOc1ccc(C(=O)c2ccc(Br)cc2)cc1",
    "IC50 (µM)": 10
  },
  {
    "molecule": "C=CCN(C)CCCCCCCOc1ccc(C(O)c2ccc(Br)cc2)cc1 (stereo not shown)",
    "IC50 (µM)": 15
  },
  {
    "molecule": "C#CCN(C)CCCCCCCCOc1ccc(C(=O)c2ccc(Cl)cc2)c(Cl)c1",
    "IC50 (µM)": 15
  },
  {
    "molecule": "CN(CCCCCCCCOc1ccc(C(=O)c2ccc(Cl)cc2)c(Cl)c1)Cc1ccccc1",
    "IC50 (µM)": 13
  },
  {
    "molecule": "C=CCN(C)CCCCCCCCOc1ccc(C(=O)c2ccc(Cl)cc2Cl)cc1",
    "IC50 (µM)": 10
  },
  {
    "molecule": "C=CCN(C)CCCCCCCOc1ccc(C(=O)c2ccc(Br)cc2)cc1",
    "IC50 (µM)": 12
  }
]

For every item in the list below, what is its measured IC50?
1. C=CCN(C)CCCCCCCCOc1ccc(C(O)c2ccc(Br)cc2)cc1 (stereo not shown)
2. C=CCN(C)CCCCCCCCOc1ccc(C(=O)c2ccc(Cl)cc2)cc1
3. C=CCN(C)CCCCCCCCOc1ccc(C(O)c2ccc(Cl)cc2Cl)cc1 (stereo not shown)
4. C=CCN(C)CCCCCCCCOc1ccc(C(O)c2ccc(Cl)cc2)cc1 (stereo not shown)
5. C=CCN(C)CCCCCCCCOc1ccc(C(=O)c2ccc(Cl)cc2)c(Cl)c1

[out]
12
5
12
10
4

###

So I've got MIC readings for M. aurum, take a look.
Answers are plain numbers, in µg/mL.

The examples below pair each entry with its known result.
[
  {
    "molecule": "NNC(=O)c1ccncc1 [INH, isoniazid, reference compound]",
    "MIC / µg/mL": 6.25
  },
  {
    "molecule": "C=CCN(C)CCCCCCCCOc1ccc(C(=O)c2ccc(Cl)cc2)c(O)c1",
    "MIC / µg/mL": 6.25
  }
]

[in] # return recorded MIC for input CO[C@H]1/C=C/O[C@@]2(C)Oc3c(C)c(O)c4c(O)c(c(/C=N/N5CCN(C)CC5)c(O)c4c3C2=O)NC(=O)/C(C)=C\C=C\[C@H](C)[C@H](O)[C@@H](C)[C@@H](O)[C@@H](C)[C@H](OC(C)=O)[C@@H]1C [RFP, Rifampicin, reference compound]
[out] 0.78
